# tgt: Cytochrome P450 isoenzyme 3A4 (Homo sapiens, UniProt P08684)
# Construct: host or cells: baculovirus/insect cells
# Sequence (P08684 whole entry): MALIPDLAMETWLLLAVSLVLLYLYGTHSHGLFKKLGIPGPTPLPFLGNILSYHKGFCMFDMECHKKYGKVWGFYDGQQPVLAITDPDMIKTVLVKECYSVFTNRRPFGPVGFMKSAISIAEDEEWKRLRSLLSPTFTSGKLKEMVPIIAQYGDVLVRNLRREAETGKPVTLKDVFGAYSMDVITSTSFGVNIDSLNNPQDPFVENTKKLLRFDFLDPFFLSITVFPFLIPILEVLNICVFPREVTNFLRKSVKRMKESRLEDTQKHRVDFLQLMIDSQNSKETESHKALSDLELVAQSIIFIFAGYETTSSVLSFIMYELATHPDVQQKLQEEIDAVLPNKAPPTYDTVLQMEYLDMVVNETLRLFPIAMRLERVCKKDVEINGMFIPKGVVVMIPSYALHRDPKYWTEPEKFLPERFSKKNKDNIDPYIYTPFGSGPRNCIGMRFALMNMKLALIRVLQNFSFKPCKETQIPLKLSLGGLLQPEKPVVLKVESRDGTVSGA
# assay remarks: Cytochrome P450 inhibition (Crespi et al.)
# Assay type: in vitro ADME
# study conditions: baculovirus/insect cell-expressed human isoenzyme 3A4; read-out: Inhibition of Cyp 450 3A4 (IC50)
endpoint label: pIC50
Numbers only, as −log10 of the molar value.

Value of measured pIC50 for the entry O=C(Nc1ccc(OC(F)(F)F)cc1)c1ccccc1NCc1ccc(=O)[nH]c1 [Example 1.0] : 5.25
